Entry source: patent US5733913A

A collection of compounds and their measured IC50
ASSAY_TARGET: C-src kinase (Homo sapiens, UniProt P12931)
Construct: made in house; host or cells: baculovirus-infected insect cells
Sequence (P12931 whole entry): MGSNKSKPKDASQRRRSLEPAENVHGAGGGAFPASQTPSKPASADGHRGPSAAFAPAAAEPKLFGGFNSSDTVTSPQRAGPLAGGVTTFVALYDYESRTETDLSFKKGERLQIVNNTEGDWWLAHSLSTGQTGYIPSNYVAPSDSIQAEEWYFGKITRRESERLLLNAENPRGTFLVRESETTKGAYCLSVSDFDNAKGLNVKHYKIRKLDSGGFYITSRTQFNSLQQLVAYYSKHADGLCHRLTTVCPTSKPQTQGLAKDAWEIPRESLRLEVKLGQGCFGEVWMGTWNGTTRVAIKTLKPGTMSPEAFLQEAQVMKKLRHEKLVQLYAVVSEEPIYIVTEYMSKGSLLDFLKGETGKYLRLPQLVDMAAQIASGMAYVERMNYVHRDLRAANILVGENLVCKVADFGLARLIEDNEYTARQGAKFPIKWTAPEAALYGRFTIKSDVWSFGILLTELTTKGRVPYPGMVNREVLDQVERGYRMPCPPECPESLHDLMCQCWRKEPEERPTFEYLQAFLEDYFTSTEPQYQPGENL
ASSAY_NOTES: C-src kinase assay
Format: biochemical
CONDITION_LABEL: read-out: Inhibition of Protein Tyrosine Kinases, C-src, IC50
Report as a plain number; the unit µM is understood.

| STRUCTURE_NOTATION | OBSERVED_RESULT |
| --- | --- |
| CCN(CC)CCCNc1ncc2cc(-c3c(C)cccc3C)c(NC(=O)NC(C)(C)C)nc2n1 | 0.098 |
| CC(C)(C)NC(=O)Nc1nc2nc(NCCCN3CCOCC3)ncc2cc1-c1c(Cl)cccc1Cl | 0.085 |

Attention now shifts to the item below.
-- ask Quick one: IC50 for CN1CCN(CCCNc2ncc3cc(-c4c(Cl)cccc4Cl)c(NC(=O)Nc4ccccc4)nc3n2)CC1 ?
-- reply 0.1
